These data points were gathered from patent US20230263822A1.

PROTOCOL TEXT: Hematology assays in cynomolgus monkeys (Example 46)
Assay type: in vivo
RECORDED CONDITIONS: Day 55
Strand notation (5' to 3'): a small letter for the sugar, then the base; units joined by * are phosphorothioate-linked, units joined directly phosphodiester-linked; [ ] holds rarer units or linkages, { } end groups; capitals alone tell only the bases. e = 2'-O-(2-methoxyethyl) (MOE); [5mC] = 5-methylcytosine; d = 2'-deoxy (DNA)
Decide using HCT: a value greater than or equal to 40% is Satisfied, a smaller one is Not satisfied.

>  <SUBSTANCE>
ISIS 449711: 3-8-3, 4-8-4, 2-10-2, 3-10-3 or 4-10-4 MOE microwalk gapmer (Table 46) (antisense eA*e[5mC]*dA*dG*dT*dT*dT*d[5mC]*dT*dG*dG*d[5mC]*eA*eG)

>  <CATEGORY>
Not satisfied

$$$$
>  <SUBSTANCE>
ISIS 449708: 3-8-3, 4-8-4, 2-10-2, 3-10-3 or 4-10-4 MOE microwalk gapmer (Table 46) (antisense eA*e[5mC]*eA*dG*dT*dT*dT*d[5mC]*dT*dG*dG*e[5mC]*eA*eG)

>  <CATEGORY>
Satisfied

$$$$
>  <SUBSTANCE>
ISIS 449707: 3-8-3, 4-8-4, 2-10-2, 3-10-3 or 4-10-4 MOE microwalk gapmer (Table 46) (antisense e[5mC]*eA*e[5mC]*eA*dG*dT*dT*dT*d[5mC]*dT*dG*dG*e[5mC]*eA*eG*eG)

>  <CATEGORY>
Satisfied

$$$$
